Source listed as ChEMBL document CHEMBL1201862.

Please go through the items and note down their GI50.
Tested on: OVCAR-4
Assay: NCI tumour cell line growth inhibition, 48 h
Active and inactive are the calls of the source. No stated cut-off is given here; in the data, active = GI50 up to about 1.1 µM and inactive = higher.

Query (compound): COC(=O)c1nn2ccc3ccccc3c2c1C(=O)OC ; field requested: GI50 > 100 µM (inactive)

Recorded GI50 for CC(=O)OCC1CCC(=C2C(=O)OC(C)(C)OC2=O)N1 (centres undefined) , please? > 100 µM (inactive)

Given the entry C=C1CCC2CC1C(C(=O)c1c[nH]c3ccccc13)=NC2(C)C (centres undefined) , report its measured GI50. > 100 µM (inactive)

I am curious: what GI50 value has been reported for N#CCCN(c1ccc(C=O)cc1)S(=O)(=O)c1ccccc1 ? > 100 µM (inactive)

Name the reported GI50 value associated with the compound Oc1ccc(Cc2cc(Cc3ccc(O)cc3)cc(Cc3ccc(O)cc3)c2)cc1 > 50 µM (inactive)

Fill in: GI50 of COC(=O)/C(=N\NC(N)=O)C(C(=O)C(=O)Nc1ccccc1C(=O)OC)c1nc2ccc(C(=O)c3ccccc3)cc2nc1O (centres undefined) is ___ > 100 µM (inactive)

Quick one: GI50 for O=C1C(Br)=CC2([N+](=O)[O-])CCNC3=C(C4=NCCc5c[nH]c(c54)C3=O)C2=C1Br (centres undefined) ? 1.76 µM (inactive)

Can you look up the measured GI50 of CC(C)CC(NC(=O)c1cccc(O)c1O)C(=O)NCc1cc(CNC(=O)C(CC(C)C)NC(=O)c2cccc(O)c2O)cc(CNC(=O)C(CC(C)C)NC(=O)c2cccc(O)c2O)c1 (centres undefined) for me? 13.9 µM (inactive)

Could you tell me which GI50 is on file for COc1ccc(OC)c([N+](=O)[O-])c1-c1nc2sc(Cl)cn2c1/C=N/N=C(N)N ? 12.2 µM (inactive)

###

Tested on: SF-539
Assay: NCI tumour cell line growth inhibition, 48 h
The source made the active and inactive calls. No stated cut-off is given here; in the data, active = GI50 up to about 1.1 µM and inactive = higher.
Entry note: the call must match one of active, inactive

What call does the record list for O=C1CSC(c2cccc(Oc3ccccc3)c2)N1c1cccc(Cl)c1Cl (stereo unspecified) ? inactive

Can you look up the reported call for CCOC(=O)C1C(C)C2(C#N)C(=N)OC1(C)C2(C#N)C#N (stereo unspecified) for me? inactive

Check the results log: what was the call for COC(=O)/C(=N\NC(N)=O)C(C(=O)C(=O)Nc1ccccc1C(=O)OC)c1nc2ccc(C(=O)c3ccccc3)cc2nc1O (stereo unspecified) ? inactive

Assay result, entry C=CCn1c2c(c3ccccc3c1=O)C(=O)c1ccccc1-2 — outcome? inactive

Kindly provide the recorded test outcome for the following compound: CCCCCCCCCCCCCC/C(C(=O)O)=C(\C)C(=O)O inactive

Called result for O=C(NN1C(=O)C(Cl)C1c1ccccc1O)c1ccccc1O (stereo unspecified) inactive

Returns: the outcome recorded for NC(Cc1ccc(OCc2ccccc2)cn1)C(=O)OCc1ccccc1 (stereo unspecified) in this assay. inactive

Recorded call for COc1cc2c[n+](C)c3c4cc(OC)c(OCc5ccccc5)cc4c(OCc4ccccc4)cc3c2cc1OC ? inactive

Can you look up the reported call for COc1ccc(C(CCC(C)=O)C(=O)O)cc1OC (stereo unspecified) for me? inactive

Fill in: this test's call for Cc1ccc([S+]([O-])CC(CF)OCn2cc(C)c(=O)[nH]c2=O)cc1 (stereo unspecified) is ___ inactive

Assay result, entry Cc1cc2c3c(coc3c1-c1c(C)cc3c4c(coc14)C(=O)C(O)=C3C(C)C)C(=O)C(O)=C2C(C)C — outcome? inactive

Please indicate how the test categorized COc1ccc(Oc2nc3cc(C(F)(F)F)ccc3nc2C(C)C)cc1 . inactive

Hi, do you know how Cc1nc2ccccc2c(=O)n1Nc1ccc(C(=O)O)cc1 came out in this test? inactive

Any idea what this test logged for Cc1ccc(NC(=O)CC/C(CC(=O)c2ccc(Cl)cc2)=N\NC(=O)C(=O)NN)cc1C ? inactive

// return assay outcome for COc1cc(COC(=O)N(CC(=O)O)c2ccccc2)c([N+](=O)[O-])cc1OC inactive

Identify the outcome logged in this assay for the compound shown: COc1ccc2cc(C(=O)O)ccc2c1OC inactive

Which outcome did this test record for the compound Cc1ccc([N+](=O)[O-])c2c(NCCNC(=O)c3cc(C(=O)NCCNc4ccnc5c(C)ccc([N+](=O)[O-])c45)n(C)n3)ccnc12 ? inactive

I'd appreciate the recorded outcome for C=C1C(C)C2C(Cc3ccccc3)NC(=O)C23C(OC(C)=O)C=CC(C)(O)C(=O)C(C)C/C=C/C3C1O (stereo unspecified) from this test. active

For this compound, state the assay outcome: CC1C2CC(CC2O)C1(C)C (stereo unspecified) inactive

// param item: O=C(Nc1nc2ccccc2n1Cc1ccc(Cl)cc1)NC12CC3CC(CC(C3)C1)C2 ; yields the recorded call inactive

Lab log entry: C=C1C(=O)O[C@H]2/C=C(/C)C3=CC(=O)[C@@](C)(C[C@@H](OC(=O)/C(C)=C\C)C12)O3 (stereo partly specified) — outcome as called in the assay? inactive
